Can you tell me LAPHEG 50 (ug/cm2), percent control for the items I'm about to list?
Tested on: Beet Armyworm (Spodoptera exigua)
ASSAY_SUMMARY: Insecticidal diet-surface test for beet armyworm
Assay type: in vivo
REPORTED_CONDITIONS: second-instar beet armyworm, 50 ug/cm2 on diet surface, 5 days after treatment, dead insects of 8
Dear colleague, please return just the value in %, with no unit written.

Query: Value wanted: LAPHEG 50 (ug/cm2), percent control (Beet Armyworm (Spodoptera exigua)) of entry Fc1ccc(Nc2cc(Cl)nc(N/N=C/c3ccc(C(F)(F)F)nc3)n2)cc1C(F)(F)F [Compound 68]
Result: 100

Query: Give Beet Armyworm (Spodoptera exigua) LAPHEG 50 (ug/cm2), percent control for Fc1ccc(Nc2cc(Cl)nc(N/N=C/c3ccc(Br)nc3)n2)cc1C(F)(F)F [Compound 66]
Result: 100

Query: # query: LAPHEG 50 (ug/cm2), percent control | item CN(c1ccc(OC(F)(F)F)cc1)c1cc(C(F)(F)F)nc(N/N=C/c2ccc(OC(F)(F)F)cc2)n1 [Compound 2] | system: Beet Armyworm (Spodoptera exigua)
Result: 0

Query: Lab note: need LAPHEG 50 (ug/cm2), percent control for Fc1ccc(Nc2nc(Cl)cc(N/N=C/c3ccc(OC(F)(F)F)cc3)n2)cc1C(F)(F)F [Compound 75] on Beet Armyworm (Spodoptera exigua), anyone have it?
Result: 100

Query: Value wanted: LAPHEG 50 (ug/cm2), percent control (Beet Armyworm (Spodoptera exigua)) of entry Fc1ccc(Nc2cc(C(F)(F)F)nc(N/N=C/c3ccc(OC(F)(F)F)cc3)n2)cc1C(F)(F)F [Compound 56]
Result: 100

Query: Beet Armyworm (Spodoptera exigua) / LAPHEG 50 (ug/cm2), percent control / FC(F)(F)Oc1ccc(/C=N/Nc2nc(Nc3cccc(C(F)(F)F)c3)cc(C(F)(F)F)n2)cc1 [Compound 54] : value?
Result: 100

Query: Beet Armyworm (Spodoptera exigua) / LAPHEG 50 (ug/cm2), percent control / OC(c1ccc(Nc2cc(F)nc(NN=Cc3ccc(OC(F)(F)F)cc3)n2)cc1)(C(F)(F)F)C(F)(F)F [Compound 21] : value?
Result: 100

Query: Quick check: LAPHEG 50 (ug/cm2), percent control on Beet Armyworm (Spodoptera exigua), item FC(F)C(F)(F)Oc1ccc(/C=N/Nc2cc(Nc3cc(Cl)cc(C(F)(F)F)c3)nc(Cl)n2)cc1 [Compound 84] ?
Result: 100

Query: Please state recorded LAPHEG 50 (ug/cm2), percent control (tested on Beet Armyworm (Spodoptera exigua)) of COc1ccc(/C=N/Nc2nc(Cl)cc(Nc3ccc(Cl)cc3)n2)cc1 [Compound 29]
Result: 63

Query: What value of LAPHEG 50 (ug/cm2), percent control on Beet Armyworm (Spodoptera exigua) does CC(C)(C)C(=O)OC(c1cccc(Nc2cc(Cl)nc(N/N=C/c3ccc(OC(F)(F)F)cc3)n2)c1)C(F)(F)F (stereo not shown) [Compound 53] have?
Result: 38

Query: Lab note: need LAPHEG 50 (ug/cm2), percent control with Beet Armyworm (Spodoptera exigua) for entry COc1ccc(/C=N/Nc2nc(Cl)cc(Nc3ccc(F)c(C(F)(F)F)c3)n2)cc1 [Compound 23] , please look it up.
Result: 50

Query: I'm curious: which LAPHEG 50 (ug/cm2), percent control was measured for FC(F)(F)Oc1ccc(/C=N/Nc2nc(Nc3ccc(OC(F)(F)F)cc3)cc(C(F)(F)F)n2)cc1 [Compound 60] tested on Beet Armyworm (Spodoptera exigua)?
Result: 100

Query: For Beet Armyworm (Spodoptera exigua), provide LAPHEG 50 (ug/cm2), percent control of FC(F)(F)Oc1ccc(/C=N/Nc2ccnc(Nc3ccc(OC(F)(F)F)cc3)n2)cc1 [Compound 73] please.
Result: 100

Query: Beet Armyworm (Spodoptera exigua) / LAPHEG 50 (ug/cm2), percent control / Fc1ccc(Nc2cc(N/N=C/c3ccc(OC(F)(F)C(F)F)cc3)nc(NCc3ccc(Cl)nc3)n2)cc1C(F)(F)F [Compound 81] : value?
Result: 0

Query: Beet Armyworm (Spodoptera exigua) / LAPHEG 50 (ug/cm2), percent control / N#Cc1ccc(/C=N/Nc2nc(Cl)cc(Nc3cccc(Cl)c3)n2)cc1 [Compound 33] : value?
Result: 13

Query: What LAPHEG 50 (ug/cm2), percent control appears in the records for this compound with Beet Armyworm (Spodoptera exigua)? Fc1cnc(N/N=C/c2ccc(Br)cc2)nc1Nc1ccc(OC(F)(F)F)cc1 [Compound 12]
Result: 0

---

Test system: Corn Earworm (Helicoverpa zea)
ASSAY_SUMMARY: Insecticidal diet-surface test for corn earworm
Assay type: in vivo
REPORTED_CONDITIONS: second-instar corn earworm, 50 ug/cm2 on diet surface, 5 days after treatment, dead insects of 8
REPORTED_ENDPOINT: HELIZE 50 (ug/cm2), percent control (%)
Reply with just the number (in %).

Query: Write down the reported HELIZE 50 (ug/cm2), percent control of OC(c1cccc(Nc2cc(Cl)nc(N/N=C/c3ccc(OC(F)(F)F)cc3)n2)c1)C(F)(F)F (stereo not shown) , test system: Corn Earworm (Helicoverpa zea).
Result: 50

Query: So what HELIZE 50 (ug/cm2), percent control did Fc1ccc(Nc2cc(N3CCOCC3)nc(N/N=C/c3ccc(OC(F)(F)F)cc3)n2)cc1C(F)(F)F get with Corn Earworm (Helicoverpa zea)?
Result: 100

Query: What measured HELIZE 50 (ug/cm2), percent control is associated with FC(F)C(F)(F)Oc1ccc(Nc2cc(Cl)nc(N/N=C/c3ccc(Cl)cc3)n2)cc1 on Corn Earworm (Helicoverpa zea)?
Result: 88

Query: Provide value of HELIZE 50 (ug/cm2), percent control for this record tested with Corn Earworm (Helicoverpa zea): FC(F)(F)Oc1ccc(/C=N/Nc2cc(Nc3cc(Cl)cc(C(F)(F)F)c3)nc(Cl)n2)cc1
Result: 100

Query: Form: Entry = Fc1cc(Nc2ccc(F)c(C(F)(F)F)c2)nc(NN=Cc2ccc(OC(F)(F)F)cc2)n1 | System = Corn Earworm (Helicoverpa zea) | HELIZE 50 (ug/cm2), percent control = ____
Result: 100

Query: # value lookup — system Corn Earworm (Helicoverpa zea), readout HELIZE 50 (ug/cm2), percent control, item Fc1ccc(/C=N/Nc2nc(Cl)cc(Nc3cccc(Cl)c3)n2)cc1C(F)(F)F
Result: 50

Query: Any idea what HELIZE 50 (ug/cm2), percent control came out for CN(c1ccc(OC(F)(F)F)cc1)c1cc(C(F)(F)F)nc(N/N=C/c2ccc(OC(F)(F)F)cc2)n1 on Corn Earworm (Helicoverpa zea)?
Result: 50

Query: Request body: readout HELIZE 50 (ug/cm2), percent control, system Corn Earworm (Helicoverpa zea), query Fc1ccc(Nc2cc(C(F)(F)F)nc(N/N=C/c3cccc(Br)c3)n2)cc1C(F)(F)F . Return the value.
Result: 100

Query: Report HELIZE 50 (ug/cm2), percent control for FC(F)(F)Oc1ccc(/C=N/Nc2nc(Cl)cc(Nc3cccc(Br)c3)n2)cc1 tested on Corn Earworm (Helicoverpa zea).
Result: 100

Query: I'm curious: which HELIZE 50 (ug/cm2), percent control was measured for FC(F)C(F)(F)Oc1ccc(/C=N/Nc2cc(Nc3cc(Cl)cc(C(F)(F)F)c3)nc(Cl)n2)cc1 tested on Corn Earworm (Helicoverpa zea)?
Result: 100

Query: Notebook: pull reported HELIZE 50 (ug/cm2), percent control for Corn Earworm (Helicoverpa zea), entry Clc1cccc(Nc2cc(Cl)nc(N/N=C/c3ccc(N4CCCCC4)cc3)n2)c1
Result: 63

Query: Value wanted: HELIZE 50 (ug/cm2), percent control (Corn Earworm (Helicoverpa zea)) of entry FC(F)C(F)(F)Oc1cccc(Nc2cc(Cl)nc(N/N=C/c3ccc(OC(F)(F)F)cc3)n2)c1
Result: 100

Query: Request: HELIZE 50 (ug/cm2), percent control, test system Corn Earworm (Helicoverpa zea), entry Fc1ccc(/C=N/Nc2nc(Cl)cc(Nc3cccc(Br)c3)n2)cc1C(F)(F)F
Result: 75

Query: Return HELIZE 50 (ug/cm2), percent control measured with Corn Earworm (Helicoverpa zea) given this compound: OC(c1cccc(Nc2cc(Cl)nc(N/N=C/c3ccc(OC(F)(F)C(F)F)cc3)n2)c1)C(F)(F)F (stereo not shown)
Result: 0

Query: Any idea what HELIZE 50 (ug/cm2), percent control came out for FC(F)(F)Oc1ccc(/C=N/Nc2nc(Nc3cccc(C(F)(F)F)c3)cc(C(F)(F)F)n2)cc1 on Corn Earworm (Helicoverpa zea)?
Result: 100

Query: For Corn Earworm (Helicoverpa zea), provide HELIZE 50 (ug/cm2), percent control of FC(F)(F)c1ccc(/C=N/Nc2nc(Cl)cc(Nc3cccc(Cl)c3)n2)cc1 please.
Result: 100

---

Tested on: Corn Earworm (Helicoverpa zea)
ASSAY_SUMMARY: Insecticidal diet-surface test for corn earworm
Assay type: in vivo
REPORTED_CONDITIONS: second-instar corn earworm, 50 ug/cm2 on diet surface, 5 days after treatment, dead insects of 8
Kindly state HELIZE 50 (ug/cm2), percent control for each of the entries shown.
Express your answer in %, writing the number without its unit.

Query: Any idea what HELIZE 50 (ug/cm2), percent control was measured for Fc1ccc(/C=N/Nc2nc(Cl)cc(Nc3ccc(OC(F)(F)C(F)F)cc3)n2)cc1C(F)(F)F [Compound 8] ?
Result: 100

Query: Which value of HELIZE 50 (ug/cm2), percent control has been reported for Fc1cnc(N/N=C/c2ccc(Br)cc2)nc1Nc1ccc(OC(F)(F)F)cc1 [Compound 12] in the records?
Result: 100

Query: I have this molecule here, CCNCCNc1cc(Nc2ccc(F)c(C(F)(F)F)c2)nc(N/N=C/c2ccc(OC(F)(F)F)cc2)n1 [Compound 65] , and I need its recorded HELIZE 50 (ug/cm2), percent control.
Result: 100

Query: Field request: HELIZE 50 (ug/cm2), percent control | item: Fc1ccc(Nc2cc(Cl)nc(N/N=C/c3ccc(OC(F)(F)F)cc3)n2)cc1C(F)(F)F [Compound 1]
Result: 100

Query: Look up HELIZE 50 (ug/cm2), percent control: Fc1ccc(Nc2cc(C(F)(F)F)nc(N/N=C/c3ccc(C(F)(F)F)nc3)n2)cc1C(F)(F)F [Compound 72]
Result: 100

Query: Fill in the blank: the reported HELIZE 50 (ug/cm2), percent control of Fc1cc(Nc2ccc(OC(F)(F)C(F)F)cc2)nc(NN=Cc2ccc(OC(F)(F)C(F)F)cc2)n1 [Compound 20] is ____.
Result: 25

Query: Dear colleague, I am looking for the recorded HELIZE 50 (ug/cm2), percent control of the following molecule: FC(F)(F)Oc1ccc(/C=N/Nc2ccnc(Nc3ccc(OC(F)(F)F)cc3)n2)cc1 [Compound 73]
Result: 100

Query: Recorded HELIZE 50 (ug/cm2), percent control for Fc1cc(Nc2ccc(F)c(C(F)(F)F)c2)nc(NN=Cc2ccc(OC(F)(F)C(F)F)cc2)n1 [Compound 18] , please?
Result: 100
